These data points were gathered from ChEMBL document CHEMBL4354881.

target: ATPase family AAA domain-containing protein 2B (Homo sapiens); test: Binding affinity to human partial length ATAD2B (Q955 to R1082 residues) expressed in bacterial expression system by BROMOscan assay
Sequence (Q9ULI0 whole entry, the tested form may be a part): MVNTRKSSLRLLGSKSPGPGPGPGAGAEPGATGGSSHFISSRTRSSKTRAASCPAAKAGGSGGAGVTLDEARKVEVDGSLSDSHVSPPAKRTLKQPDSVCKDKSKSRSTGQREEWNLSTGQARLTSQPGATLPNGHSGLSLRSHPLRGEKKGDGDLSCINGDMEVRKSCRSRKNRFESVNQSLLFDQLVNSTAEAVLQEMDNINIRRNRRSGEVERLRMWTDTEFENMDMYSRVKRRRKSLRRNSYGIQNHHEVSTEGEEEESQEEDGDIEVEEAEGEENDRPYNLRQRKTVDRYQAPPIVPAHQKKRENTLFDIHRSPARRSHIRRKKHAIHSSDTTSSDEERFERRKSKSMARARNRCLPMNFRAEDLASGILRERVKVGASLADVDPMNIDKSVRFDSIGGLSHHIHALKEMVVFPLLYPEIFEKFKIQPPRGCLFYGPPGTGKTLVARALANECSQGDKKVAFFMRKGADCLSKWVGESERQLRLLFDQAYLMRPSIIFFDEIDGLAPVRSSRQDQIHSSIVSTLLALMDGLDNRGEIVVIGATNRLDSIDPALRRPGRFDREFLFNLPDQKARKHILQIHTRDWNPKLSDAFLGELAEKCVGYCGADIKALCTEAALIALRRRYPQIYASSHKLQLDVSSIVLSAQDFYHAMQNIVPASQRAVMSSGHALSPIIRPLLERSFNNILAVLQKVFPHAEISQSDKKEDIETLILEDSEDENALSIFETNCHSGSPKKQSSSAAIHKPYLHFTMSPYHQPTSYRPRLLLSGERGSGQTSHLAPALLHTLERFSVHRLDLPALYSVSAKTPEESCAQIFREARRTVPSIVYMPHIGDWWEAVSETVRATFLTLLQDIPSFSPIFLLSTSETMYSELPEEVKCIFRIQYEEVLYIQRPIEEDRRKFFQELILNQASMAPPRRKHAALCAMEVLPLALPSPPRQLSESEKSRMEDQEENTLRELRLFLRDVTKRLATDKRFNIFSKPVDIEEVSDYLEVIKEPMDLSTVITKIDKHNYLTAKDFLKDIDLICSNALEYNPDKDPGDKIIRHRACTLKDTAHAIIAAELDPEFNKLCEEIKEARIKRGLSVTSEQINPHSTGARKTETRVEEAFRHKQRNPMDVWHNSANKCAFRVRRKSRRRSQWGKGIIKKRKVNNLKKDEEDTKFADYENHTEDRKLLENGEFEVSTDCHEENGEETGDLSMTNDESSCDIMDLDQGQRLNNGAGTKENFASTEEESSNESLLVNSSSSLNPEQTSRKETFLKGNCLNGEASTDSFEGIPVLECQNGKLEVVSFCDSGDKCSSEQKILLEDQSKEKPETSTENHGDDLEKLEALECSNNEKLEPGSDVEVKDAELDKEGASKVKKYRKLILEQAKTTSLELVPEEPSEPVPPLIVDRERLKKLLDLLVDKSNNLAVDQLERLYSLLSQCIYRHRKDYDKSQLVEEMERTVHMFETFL
PROPERTY MEASURED: Kd
Answer format: number, then unit.

What Kd value was documented for this compound, `C[C@H]1CCN(S(=O)(=O)c2cc(NC(=O)CN3C(=O)N[C@@](C)(C4CC4)C3=O)ccc2Br)C1` ?
20 nM

----------
target: Bromodomain and PHD finger-containing protein 3 (Homo sapiens); assay: Binding affinity to human partial length BRPF3 (E588 to G701 residues) expressed in bacterial expression system by BROMOscan assay
Sequence (Q9ULD4 whole entry, the tested form may be a part): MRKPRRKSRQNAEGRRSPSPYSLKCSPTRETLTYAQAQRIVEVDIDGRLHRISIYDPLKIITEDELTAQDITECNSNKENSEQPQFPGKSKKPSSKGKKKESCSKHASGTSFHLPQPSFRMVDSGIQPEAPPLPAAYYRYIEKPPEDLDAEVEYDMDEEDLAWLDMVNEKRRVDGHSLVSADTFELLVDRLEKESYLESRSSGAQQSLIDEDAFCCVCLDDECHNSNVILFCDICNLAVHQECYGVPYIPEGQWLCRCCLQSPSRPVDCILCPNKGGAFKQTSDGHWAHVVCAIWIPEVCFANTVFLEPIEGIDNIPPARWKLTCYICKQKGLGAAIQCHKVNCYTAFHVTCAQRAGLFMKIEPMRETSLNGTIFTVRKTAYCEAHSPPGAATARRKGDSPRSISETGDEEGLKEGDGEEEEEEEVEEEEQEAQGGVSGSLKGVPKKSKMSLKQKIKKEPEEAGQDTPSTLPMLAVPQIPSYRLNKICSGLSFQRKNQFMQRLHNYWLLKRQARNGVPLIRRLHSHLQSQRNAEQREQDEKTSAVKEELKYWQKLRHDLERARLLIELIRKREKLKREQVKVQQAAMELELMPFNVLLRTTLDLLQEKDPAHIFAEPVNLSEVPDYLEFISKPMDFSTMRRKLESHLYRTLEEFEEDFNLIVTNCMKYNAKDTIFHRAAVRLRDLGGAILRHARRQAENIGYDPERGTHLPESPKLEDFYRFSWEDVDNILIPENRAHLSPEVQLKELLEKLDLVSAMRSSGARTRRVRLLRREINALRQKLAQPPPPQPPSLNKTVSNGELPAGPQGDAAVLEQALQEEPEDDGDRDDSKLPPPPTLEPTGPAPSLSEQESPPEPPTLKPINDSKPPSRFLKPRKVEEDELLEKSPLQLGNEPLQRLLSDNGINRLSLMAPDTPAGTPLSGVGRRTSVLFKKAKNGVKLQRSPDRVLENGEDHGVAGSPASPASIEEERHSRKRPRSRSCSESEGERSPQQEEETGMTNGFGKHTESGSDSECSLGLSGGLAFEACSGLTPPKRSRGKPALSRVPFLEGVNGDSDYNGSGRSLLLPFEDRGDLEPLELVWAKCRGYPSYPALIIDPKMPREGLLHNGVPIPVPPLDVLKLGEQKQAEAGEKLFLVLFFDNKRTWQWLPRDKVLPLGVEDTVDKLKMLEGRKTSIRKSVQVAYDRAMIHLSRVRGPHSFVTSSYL
PROPERTY MEASURED: pKd
Answers are plain numbers, as −log10 of the molar value.

Enter reported pKd observed with Bromodomain and PHD finger-containing protein 3 (Homo sapiens) for `C[C@H]1CCN(S(=O)(=O)c2cc(NC(=O)CN3C(=O)N[C@@](C)(C4CC4)C3=O)ccc2Br)C1`
6.90

----------
molecular target: ATPase family AAA domain-containing protein 2 (Homo sapiens, UniProt Q6PL18); test: Binding affinity to human partial length ATAD2A (Q981 to R1108 residues) expressed in bacterial expression system by BROMOscan assay
Sequence (Q6PL18 whole entry, the tested form may be a part): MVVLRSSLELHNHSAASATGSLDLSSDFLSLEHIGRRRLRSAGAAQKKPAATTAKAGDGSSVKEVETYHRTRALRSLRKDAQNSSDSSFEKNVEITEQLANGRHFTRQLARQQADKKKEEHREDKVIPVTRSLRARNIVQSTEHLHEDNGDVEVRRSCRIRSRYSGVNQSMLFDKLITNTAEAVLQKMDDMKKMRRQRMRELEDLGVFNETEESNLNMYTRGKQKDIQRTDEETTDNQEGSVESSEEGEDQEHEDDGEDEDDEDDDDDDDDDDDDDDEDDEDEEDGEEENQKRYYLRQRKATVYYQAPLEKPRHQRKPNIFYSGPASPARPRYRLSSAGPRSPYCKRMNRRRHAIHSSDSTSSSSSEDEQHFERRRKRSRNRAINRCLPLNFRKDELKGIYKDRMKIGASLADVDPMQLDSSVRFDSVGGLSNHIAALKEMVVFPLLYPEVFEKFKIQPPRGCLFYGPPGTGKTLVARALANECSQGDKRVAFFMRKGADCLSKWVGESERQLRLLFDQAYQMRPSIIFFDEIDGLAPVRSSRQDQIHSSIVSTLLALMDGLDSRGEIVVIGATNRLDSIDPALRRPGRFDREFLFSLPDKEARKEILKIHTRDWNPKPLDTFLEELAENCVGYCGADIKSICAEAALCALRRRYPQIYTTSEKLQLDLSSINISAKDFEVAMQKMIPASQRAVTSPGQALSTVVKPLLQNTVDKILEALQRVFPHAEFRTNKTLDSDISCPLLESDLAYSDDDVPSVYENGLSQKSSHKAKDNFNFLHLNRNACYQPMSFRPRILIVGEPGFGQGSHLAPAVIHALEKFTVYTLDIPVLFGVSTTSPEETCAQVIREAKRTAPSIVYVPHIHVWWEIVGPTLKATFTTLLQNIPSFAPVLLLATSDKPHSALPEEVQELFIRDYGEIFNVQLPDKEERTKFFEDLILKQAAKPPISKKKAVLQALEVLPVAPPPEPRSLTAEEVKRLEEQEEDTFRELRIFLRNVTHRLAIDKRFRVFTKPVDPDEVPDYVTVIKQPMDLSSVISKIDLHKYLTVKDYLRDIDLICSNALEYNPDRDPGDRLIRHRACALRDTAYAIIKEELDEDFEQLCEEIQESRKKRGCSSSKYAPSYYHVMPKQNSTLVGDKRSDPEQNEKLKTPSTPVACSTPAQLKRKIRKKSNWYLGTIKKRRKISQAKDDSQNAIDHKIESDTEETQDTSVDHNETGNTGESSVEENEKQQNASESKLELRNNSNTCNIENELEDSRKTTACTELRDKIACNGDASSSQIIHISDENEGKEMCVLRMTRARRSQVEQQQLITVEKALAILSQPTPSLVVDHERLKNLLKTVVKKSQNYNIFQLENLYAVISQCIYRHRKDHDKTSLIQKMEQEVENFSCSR
PROPERTY MEASURED: pKd
Give bare numbers, as −log10 of the molar value.

What pKd value was documented for this compound, `C[C@H]1CCN(S(=O)(=O)c2cc(NC(=O)CN3C(=O)N[C@@](C)(C4CC4)C3=O)ccc2Br)C1` ?
8.00

----------
target: Bromodomain-containing protein 4 (Homo sapiens, UniProt O60885, Y390A); test: Displacement of Alexa Fluor 647-labeled ligand from BRD4 BD1 Y390A mutant (1 to 477 residue) (unknown origin) measured after 30 mins by TR-FRET assay
pIC50: −log10 of the molar value.
PROPERTY MEASURED: pIC50

COMPOUND	ASSAY SYSTEM	pIC50
C[C@H]1CCN(S(=O)(=O)c2cc(NC(=O)CN3C(=O)CNC3=O)ccc2Cl)C1	Bromodomain-containing protein 4 (Homo sapiens, UniProt O60885, Y390A)	< 4.30
C[C@H]1CCN(S(=O)(=O)c2cc(NC(=O)Cn3ccnn3)ccc2Br)C1	Bromodomain-containing protein 4 (Homo sapiens, UniProt O60885, Y390A)	< 4.30
C[C@H]1CCN(S(=O)(=O)c2cc(NC(=O)Cn3c(=O)oc4ccccc43)ccc2Br)C1	Bromodomain-containing protein 4 (Homo sapiens, UniProt O60885, Y390A)	5.00
O=C(CN1C(=O)CCC1=O)Nc1ccc(Cl)c(S(=O)(=O)N2CCCC2)c1	Bromodomain-containing protein 4 (Homo sapiens, UniProt O60885, Y390A)	< 4.30
COCc1cn(CC(=O)Nc2ccc(Br)c(S(=O)(=O)N3CC[C@H](C)C3)c2)nn1	Bromodomain-containing protein 4 (Homo sapiens, UniProt O60885, Y390A)	< 4.30
CN(C)S(=O)(=O)c1cc(NC(=O)CN2C(=O)CNC2=O)ccc1Cl	Bromodomain-containing protein 4 (Homo sapiens, UniProt O60885, Y390A)	4.40
CN(C)CC1CCN(S(=O)(=O)c2cc(NC(=O)CN3C(=O)CNC3=O)ccc2Cl)C1 (centres undefined)	Bromodomain-containing protein 4 (Homo sapiens, UniProt O60885, Y390A)	< 4.30
CN1CCc2c(nnn2CC(=O)Nc2ccc(Cl)c(S(=O)(=O)N3CC[C@H](C4CC4)C3)c2)C1	Bromodomain-containing protein 4 (Homo sapiens, UniProt O60885, Y390A)	4.60

Consider the additional compound presented here.
Find the recorded pIC50 belonging to CCC1CCN(S(=O)(=O)c2cc(NC(=O)CN3C(=O)CNC3=O)ccc2Cl)C1 (racemic) and report it.
< 4.30
